Tested on: JR-FL
Experiment: Infection by single-round luciferase viruses, HIV-1 JR-FL envelope
Type: cell-based
Settings: Human immunodeficiency virus 1, 48 h, read-out: JR-FL (μM)
Each record is given satisfied if its reported IC50 is strictly below 10 µM. Records at or above 10 µM are given not satisfied.

compound | target.desc | answer.label
CNCc1ccc2c(c1)[C@H](NC(=O)C(=O)Nc1ccc(Cl)c(F)c1)[C@@H](CNC(=N)N)C2 [(+)-JP-III-048] | JR-FL | not satisfied
CNCc1ccc2c(c1)C[C@H](CNC(=N)N)[C@H]2NC(=O)C(=O)Nc1ccc(Cl)c(F)c1 [(+)-BNM-III-170] | JR-FL | not satisfied
N=C(N)NC[C@H]1Cc2ccccc2[C@@H]1NC(=O)C(=O)Nc1ccc(Cl)c(F)c1 [(+)-DMJ-II-121] | JR-FL | not satisfied

Hello, I'm reviewing records and need to know if IC50 of CN(Cc1ccc2c(c1)[C@H](NC(=O)C(=O)Nc1ccc(Cl)c(F)c1)[C@@H](CNC(=N)N)C2)C(=N)N [(−)-BNM-IV-197] is below 10 µM. Could you check? not satisfied

Identify whether the compound CN(Cc1ccc2c(c1)C[C@H](CNC(=N)N)[C@H]2NC(=O)C(=O)Nc1ccc(Cl)c(F)c1)C(=N)N [(+)-BNM-IV-147] records IC50 below 10 µM. satisfied

IC50 under 10 µM? Item: CN(Cc1ccccc1)Cc1ccc2c(c1)C[C@H](CNC(=N)N)[C@H]2NC(=O)C(=O)Nc1ccc(Cl)c(F)c1 [(+)-BNM-IV-125] not satisfied

---

For each record, write down the corresponding Kd.
Biological target: monomeric YU-2 gp120 (Human immunodeficiency virus type 1 group M subtype B)
Show the value, then the unit it is measured in.

Consider the worked cases shown below.
molecule | Kd
CNCc1ccc2c(c1)[C@H](NC(=O)C(=O)Nc1ccc(Cl)c(F)c1)[C@@H](CNC(=N)N)C2 [(+)-JP-III-048] | 24 nM
CN(Cc1ccc2c(c1)C[C@H](CNC(=N)N)[C@H]2NC(=O)C(=O)Nc1ccc(Cl)c(F)c1)C(=N)N [(+)-BNM-IV-147] | 95 nM
CN(Cc1ccc2c(c1)[C@H](NC(=O)C(=O)Nc1ccc(Cl)c(F)c1)[C@@H](CNC(=N)N)C2)C(=N)N [(−)-BNM-IV-197] | 95 nM

Fill in the blank: the reported Kd of CNCc1ccc2c(c1)C[C@H](CNC(=N)N)[C@H]2NC(=O)C(=O)Nc1ccc(Cl)c(F)c1 [(+)-BNM-III-170] is ____. 47 nM

---

Field: IC50. Provide a value for each of the compounds that follow.
Tested on: A-MLV
Assay: Infection by single-round luciferase viruses, control A-MLV envelope
Assay type: cell-based, amphotropic murine leukemia virus
Conditions: Murine leukemia virus, 48 h, read-out: A-MLV (μM)

Here are 3 compounds together with their reported answers.
compound | target.desc | IC50
CN(Cc1ccc2c(c1)[C@H](NC(=O)C(=O)Nc1ccc(Cl)c(F)c1)[C@@H](CNC(=N)N)C2)C(=N)N [(−)-BNM-IV-197] | A-MLV | 83.7 µM
CN(Cc1ccc2c(c1)C[C@H](CNC(=N)N)[C@H]2NC(=O)C(=O)Nc1ccc(Cl)c(F)c1)C(=N)N [(+)-BNM-IV-147] | A-MLV | > 100 µM
CN(Cc1ccccc1)Cc1ccc2c(c1)C[C@H](CNC(=N)N)[C@H]2NC(=O)C(=O)Nc1ccc(Cl)c(F)c1 [(+)-BNM-IV-125] | A-MLV | > 100 µM

I have 3 compounds here; please give me IC50 for each one.
1. N=C(N)NC[C@H]1Cc2ccccc2[C@@H]1NC(=O)C(=O)Nc1ccc(Cl)c(F)c1 [(+)-DMJ-II-121]
2. CNCc1ccc2c(c1)[C@H](NC(=O)C(=O)Nc1ccc(Cl)c(F)c1)[C@@H](CNC(=N)N)C2 [(+)-JP-III-048]
3. CNCc1ccc2c(c1)C[C@H](CNC(=N)N)[C@H]2NC(=O)C(=O)Nc1ccc(Cl)c(F)c1 [(+)-BNM-III-170]

94.3 µM
> 100 µM
> 100 µM

---

Target: monomeric YU-2 gp120 (Human immunodeficiency virus type 1 group M subtype B)
Construct: containing monomeric YU-2 gp120 at a concentration of 2 μM
Assay: biochemical
Type: binding, HIV-1
Settings: ITC, 25° C., PBS pH 7.4, 2% DMSO
Label scheme for ΔH: lower than -20 kcal/mol is no, -20 kcal/mol and above is yes.

Solved entries:
compound | target.desc | answer.label
CN(Cc1ccc2c(c1)C[C@H](CNC(=N)N)[C@H]2NC(=O)C(=O)Nc1ccc(Cl)c(F)c1)C(=N)N [(+)-BNM-IV-147] | monomeric YU-2 gp120 (Human immunodeficiency virus type 1 group M subtype B) | yes
CNCc1ccc2c(c1)[C@H](NC(=O)C(=O)Nc1ccc(Cl)c(F)c1)[C@@H](CNC(=N)N)C2 [(+)-JP-III-048] | monomeric YU-2 gp120 (Human immunodeficiency virus type 1 group M subtype B) | no
CN(Cc1ccc2c(c1)[C@H](NC(=O)C(=O)Nc1ccc(Cl)c(F)c1)[C@@H](CNC(=N)N)C2)C(=N)N [(−)-BNM-IV-197] | monomeric YU-2 gp120 (Human immunodeficiency virus type 1 group M subtype B) | yes
N=C(N)NC[C@H]1Cc2ccccc2[C@@H]1NC(=O)C(=O)Nc1ccc(Cl)c(F)c1 [(+)-DMJ-II-121] | monomeric YU-2 gp120 (Human immunodeficiency virus type 1 group M subtype B) | yes

# input for lookup
Could you verify whether the entry CNCc1ccc2c(c1)C[C@H](CNC(=N)N)[C@H]2NC(=O)C(=O)Nc1ccc(Cl)c(F)c1 [(+)-BNM-III-170] shows ΔH of no less than -20 kcal/mol? no

---

Answer each item with its documented ΔG.
Biological target: monomeric YU-2 gp120 (Human immunodeficiency virus type 1 group M subtype B)
Construct: containing monomeric YU-2 gp120 at a concentration of 2 μM
Experiment: biochemical
Assay type: binding, HIV-1
Conditions: ITC, 25° C., PBS pH 7.4, 2% DMSO
Numbers only, in kcal/mol.

Sample answers from the record:
compound | metric.name | readout.number
CN(Cc1ccc2c(c1)C[C@H](CNC(=N)N)[C@H]2NC(=O)C(=O)Nc1ccc(Cl)c(F)c1)C(=N)N [(+)-BNM-IV-147] | ΔG | -9.6
CN(Cc1ccc2c(c1)[C@H](NC(=O)C(=O)Nc1ccc(Cl)c(F)c1)[C@@H](CNC(=N)N)C2)C(=N)N [(−)-BNM-IV-197] | ΔG | -9.6
CNCc1ccc2c(c1)C[C@H](CNC(=N)N)[C@H]2NC(=O)C(=O)Nc1ccc(Cl)c(F)c1 [(+)-BNM-III-170] | ΔG | -10.0

Value sought for every listed compound: ΔG.
1. CNCc1ccc2c(c1)[C@H](NC(=O)C(=O)Nc1ccc(Cl)c(F)c1)[C@@H](CNC(=N)N)C2 [(+)-JP-III-048]
2. N=C(N)NC[C@H]1Cc2ccccc2[C@@H]1NC(=O)C(=O)Nc1ccc(Cl)c(F)c1 [(+)-DMJ-II-121]

-10.4
-9.5

---

Assay: Evaluation of blood-brain barrier: brain and plasma concentrations
Assay type: in vivo
Conditions: female, CD1, mouse, plasma, ip, 5 mg/kg, 1 hr post IP at 5 mg/kg, female CD1 mice, AVG of 3 mice; read-out: Plasma
metric.name: concentration at 1 h (ng/mL)
Numbers only, in ng/mL.

Return reported concentration at 1 h; argument: CNCc1ccc2c(c1)C[C@H](CNC(=N)N)[C@H]2NC(=O)C(=O)Nc1ccc(Cl)c(F)c1 [(+)-BNM-III-170] 567

---

Assay: Evaluation of blood-brain barrier: brain and plasma concentrations
Assay type: in vivo
Settings: female, CD1, mouse, brain, ip, 5 mg/kg, 1 hr post IP at 5 mg/kg, female CD1 mice, AVG of 3 mice; read-out: Brain
metric.name: concentration at 1 h
Field: value (include unit after the number)

Give the measured concentration at 1 h of CNCc1ccc2c(c1)C[C@H](CNC(=N)N)[C@H]2NC(=O)C(=O)Nc1ccc(Cl)c(F)c1 [(+)-BNM-III-170] . 174 ng/g

---

Assay: Assessment of the maximum tolerated dose (MTD)
Conditions: mouse, in vivo, ip; intraperitoneal, CD-1 mice
metric.name: MTD

# get_value(readout='MTD', item= CNCc1ccc2c(c1)C[C@H](CNC(=N)N)[C@H]2NC(=O)C(=O)Nc1ccc(Cl)c(F)c1 [(+)-BNM-III-170] ) 3 to 9 mg/kg

---

Exercise: for every item that follows, state its recorded −TΔS (kcal/mol).
Biological target: monomeric YU-2 gp120 (Human immunodeficiency virus type 1 group M subtype B, UniProt P35961)
Construct: containing monomeric YU-2 gp120 at a concentration of 2 μM
Assay: biochemical
Format: binding, HIV-1
Settings: ITC, 25° C., PBS pH 7.4, 2% DMSO

molecule | −TΔS (kcal/mol)
CN(Cc1ccc2c(c1)C[C@H](CNC(=N)N)[C@H]2NC(=O)C(=O)Nc1ccc(Cl)c(F)c1)C(=N)N [(+)-BNM-IV-147] | +5.8 kcal/mol
CNCc1ccc2c(c1)[C@H](NC(=O)C(=O)Nc1ccc(Cl)c(F)c1)[C@@H](CNC(=N)N)C2 [(+)-JP-III-048] | +17.8 kcal/mol
CNCc1ccc2c(c1)C[C@H](CNC(=N)N)[C@H]2NC(=O)C(=O)Nc1ccc(Cl)c(F)c1 [(+)-BNM-III-170] | +10.7 kcal/mol
CN(Cc1ccc2c(c1)[C@H](NC(=O)C(=O)Nc1ccc(Cl)c(F)c1)[C@@H](CNC(=N)N)C2)C(=N)N [(−)-BNM-IV-197] | +4.6 kcal/mol

Please turn your attention to the following entry.
Quick one: −TΔS (kcal/mol) of N=C(N)NC[C@H]1Cc2ccccc2[C@@H]1NC(=O)C(=O)Nc1ccc(Cl)c(F)c1 [(+)-DMJ-II-121] ? +8.4 kcal/mol
